The reported numbers originate from paper PMC11989212.

subject of test: MAPRE1 in the presence of FKBP12 (Homo sapiens, UniProt P62942+Q15691)
Construct: His-tag (N)
test name: Spectral shift target engagement assay, binding to MAPRE1 in the presence of 10 μM FKBP12 (ternary)
reported conditions: 5 nM MAPRE1-NHS, 10 μM FKBP12; read-out: EC50 of the %Tbound, ternary curve
measurement kind: EC50 (µM)
# output: bare number, implied unit µM

Report the value of EC50 obtained on MAPRE1 in the presence of FKBP12 (Homo sapiens, UniProt P62942+Q15691) for C=C1CCN2C(=O)COc3cccc(c3)C(CCc3ccc(OC)c(OC)c3)OC(=O)C3CCCCN3C(=O)C(=O)C(C)(C)COC(=O)C(C)(C)NC(=O)C2C1 (centres unmarked) .
0.377

Give EC50; test system MAPRE1 in the presence of FKBP12 (Homo sapiens, UniProt P62942+Q15691); molecule C=C1CCN2C(=O)COc3cccc(c3)C(CCc3ccc(OC)c(OC)c3)OC(=O)C3CCCCN3C(=O)C(=O)C(C)(C)COC(=O)C(CO)NC(=O)C2C1 (centres unmarked)
0.114

Provide EC50, system MAPRE1 in the presence of FKBP12 (Homo sapiens, UniProt P62942+Q15691), entry C=C1CCN2C(=O)COc3cccc(c3)C(CCc3ccc(OC)c(OC)c3)OC(=O)C3CCCCN3C(=O)C(=O)C(C)(C)COC(=O)C3(CC3)NC(=O)C2C1 (centres unmarked)
0.18

State measured EC50 of the molecule C=C1CCN2C(=O)COc3cccc(c3)C(CCc3ccc(OC)c(OC)c3)OC(=O)C3CCCCN3C(=O)C(=O)C(C)(C)COC(=O)C(C(F)(F)F)NC(=O)C2C1 (centres unmarked) with MAPRE1 in the presence of FKBP12 (Homo sapiens, UniProt P62942+Q15691).
1.07

====

I'd be grateful if you could share measured EC50 for these entries.
subject of test: MAPRE1 (Homo sapiens, UniProt Q15691)
Construct: His-tag (N)
test name: Spectral shift target engagement assay, binary binding to MAPRE1
reported conditions: 5 nM MAPRE1-NHS, no FKBP12; interpolated; read-out: EC50 of the %Tbound, binary curve

In one line, give reported EC50 of the entry C=C1CCN2C(=O)COc3cccc(c3)C(CCc3ccc(OC)c(OC)c3)OC(=O)C3CCCCN3C(=O)C(=O)C(C)(C)COC(=O)C(CC)NC(=O)C2C1 (stereo not shown) [R,S-SLF-3] .
> 200 µM

Please look at this molecule and report its EC50: C=C1CCN2C(=O)COc3cccc(c3)C(CCc3ccc(OC)c(OC)c3)OC(=O)C3CCCCN3C(=O)C(=O)C(C)(C)COC(=O)C(CO)NC(=O)C2C1 (stereo not shown) [R,S-SLF-6]
> 200 µM

Tell us which EC50 value is on record for C=C1CCN2C(=O)COc3cccc(c3)C(CCc3ccc(OC)c(OC)c3)OC(=O)C3CCCCN3C(=O)C(=O)C(C)(C)COC(=O)C(C)NC(=O)C2C1 (stereo not shown) [S,S-SLF-1d]
> 200 µM

Could you please provide reported EC50 for C=C1CCN2C(=O)COc3cccc(c3)C(CCc3ccc(OC)c(OC)c3)OC(=O)C3CCCCN3C(=O)C(=O)C(C)(C)COC(=O)C(C(F)(F)F)NC(=O)C2C1 (stereo not shown) [R,S-SLF-8] ? Thanks!
> 200 µM

====

Would you kindly list pEC50 for each of these compounds?
subject of test: FKBP12 in the presence of MAPRE1 (Homo sapiens, UniProt P62942+Q15691)
Sequence (P62942 whole entry): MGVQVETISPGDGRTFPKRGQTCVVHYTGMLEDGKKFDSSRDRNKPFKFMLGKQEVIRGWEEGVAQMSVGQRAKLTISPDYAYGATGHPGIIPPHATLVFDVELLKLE
Sequence (Q15691 whole entry): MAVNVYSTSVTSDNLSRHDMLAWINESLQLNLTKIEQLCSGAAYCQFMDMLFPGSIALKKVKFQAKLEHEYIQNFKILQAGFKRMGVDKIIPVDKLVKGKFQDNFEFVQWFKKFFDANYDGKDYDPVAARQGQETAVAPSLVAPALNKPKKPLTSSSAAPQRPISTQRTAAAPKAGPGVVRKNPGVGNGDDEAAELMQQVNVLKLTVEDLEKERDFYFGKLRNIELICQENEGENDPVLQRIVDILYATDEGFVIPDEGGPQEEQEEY
test name: Spectral shift target engagement assay, binding to FKBP12 in the presence of 10 μM MAPRE1 (ternary)
reported conditions: calculated with the model using α from MAPRE1 binding; read-out: calc EC50 of the %Cbound, ternary curve
pEC50 field: float, defined as -log10 of concentration (mol/L).

Fill in reported pEC50 for this entry: C=C1CCN2C(=O)COc3cccc(c3)C(CCc3ccc(OC)c(OC)c3)OC(=O)C3CCCCN3C(=O)C(=O)C(C)(C)COC(=O)C(C(F)(F)F)NC(=O)C2C1 (centres unmarked)
7.51

Report pEC50, nothing else, for this compound: C=C1CCN2C(=O)COc3cccc(c3)C(CCc3ccc(OC)c(OC)c3)OC(=O)C3CCCCN3C(=O)C(=O)C(C)(C)COC(=O)C(C)NC(=O)C2C1 (centres unmarked)
7.70

Indicate its recorded pEC50; the compound in question is C=C1CCN2C(=O)COc3cccc(c3)C(CCc3ccc(OC)c(OC)c3)OC(=O)C3CCCCN3C(=O)C(=O)C(C)(C)COC(=O)C(CO)NC(=O)C2C1 (centres unmarked)
7.68

State its pEC50: C=C1CCN2C(=O)COc3cccc(c3)C(CCc3ccc(OC)c(OC)c3)OC(=O)C3CCCCN3C(=O)C(=O)C(C)(C)COC(=O)C(CC)NC(=O)C2C1 (centres unmarked)
7.60

Tell me its pEC50 given C=C1CCN2C(=O)COc3cccc(c3)C(CCc3ccc(OC)c(OC)c3)OC(=O)C3CCCCN3C(=O)C(=O)C(C)(C)COC(=O)C(CN)NC(=O)C2C1 (centres unmarked) as the entry.
7.32

====

subject of test: FKBP12 in the presence of MAPRE1 (Homo sapiens, UniProt P62942+Q15691)
test name: Spectral shift target engagement assay, binding to FKBP12 in the presence of 10 μM MAPRE1 (ternary)
reported conditions: 40 nM FKBP12-NTA, 10 μM MAPRE1; read-out: EC50 of the %Cbound, ternary curve (measured)
For each of the compounds below, state its EC50.
Please format your answer as a value with the unit trailing.

Give the measured EC50 for C=C1CCN2C(=O)COc3cccc(c3)C(CCc3ccc(OC)c(OC)c3)OC(=O)C3CCCCN3C(=O)C(=O)C(C)(C)COC(=O)C3(CC3)NC(=O)C2C1 (stereo not drawn)
66 nM

In one line, give reported EC50 of the entry COc1ccc(CCC2OC(=O)C3CCCCN3C(=O)C(=O)C(C)(C)COC(=O)C(C)NC(=O)C3CC(O)CN3C(=O)COc3cccc2c3)cc1OC (stereo not drawn) .
30 nM

Note down EC50 recorded for C=C1CCN2C(=O)COc3cccc(c3)C(CCc3ccc(OC)c(OC)c3)OC(=O)C3CCCCN3C(=O)C(=O)C(C)(C)COC(=O)C(CO)NC(=O)C2C1 (stereo not drawn)
24 nM

====

Kindly supply the reported Kd values for the records listed here.
Provide only the numeric value, understood in nM.

Give measured Kd for C=C1CCN2C(=O)COc3cccc(c3)C(CCc3ccc(OC)c(OC)c3)OC(=O)C3CCCCN3C(=O)C(=O)C(C)(C)COC(=O)C(C)(C)NC(=O)C2C1 (stereo not drawn) [R,--SLF-10] (FKBP12 (Homo sapiens, UniProt P62942)).
108

Enter recorded Kd with FKBP12 (Homo sapiens, UniProt P62942) for C=C1CCN2C(=O)COc3cccc(c3)C(CCc3ccc(OC)c(OC)c3)OC(=O)C3CCCCN3C(=O)C(=O)C(C)(C)COC(=O)C(C(F)(F)F)NC(=O)C2C1 (stereo not drawn) [R,S-SLF-8] here.
109

Write down the reported Kd (system: FKBP12 (Homo sapiens, UniProt P62942)) of C=C1CCN2C(=O)COc3cccc(c3)C(CCc3ccc(OC)c(OC)c3)OC(=O)C3CCCCN3C(=O)C(=O)C(C)(C)COC(=O)C(CC)NC(=O)C2C1 (stereo not drawn) [R,S-SLF-3]
66
